Target protein (sequence): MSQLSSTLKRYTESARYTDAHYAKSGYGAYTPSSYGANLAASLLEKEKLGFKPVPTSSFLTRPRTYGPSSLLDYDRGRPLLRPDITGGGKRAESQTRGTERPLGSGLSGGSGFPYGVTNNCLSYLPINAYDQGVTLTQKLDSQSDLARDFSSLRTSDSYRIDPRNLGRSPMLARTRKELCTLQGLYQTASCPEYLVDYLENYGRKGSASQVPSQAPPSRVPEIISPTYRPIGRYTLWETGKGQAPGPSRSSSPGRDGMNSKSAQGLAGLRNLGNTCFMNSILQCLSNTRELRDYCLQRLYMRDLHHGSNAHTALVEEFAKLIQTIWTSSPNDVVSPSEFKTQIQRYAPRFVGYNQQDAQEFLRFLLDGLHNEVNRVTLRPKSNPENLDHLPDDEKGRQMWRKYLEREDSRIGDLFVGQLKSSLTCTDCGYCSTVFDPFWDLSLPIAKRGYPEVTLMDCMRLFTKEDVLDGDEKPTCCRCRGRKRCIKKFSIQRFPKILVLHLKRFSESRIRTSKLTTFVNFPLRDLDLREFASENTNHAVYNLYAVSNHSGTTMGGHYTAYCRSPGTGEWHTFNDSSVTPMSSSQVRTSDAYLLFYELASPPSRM
pIC50: −log10 of the molar value.
measured property: pIC50

response.value for CC(C)(Sc1ccc(CCN(CCCCC2CCCCC2)C(=O)NC2CCCCC2)cc1)C(=O)O (field: pIC50) = < 3.94

====

- assay system: USP1/UAF1 (Homo sapiens, UniProt O94782)
- Sequence (O94782 whole entry): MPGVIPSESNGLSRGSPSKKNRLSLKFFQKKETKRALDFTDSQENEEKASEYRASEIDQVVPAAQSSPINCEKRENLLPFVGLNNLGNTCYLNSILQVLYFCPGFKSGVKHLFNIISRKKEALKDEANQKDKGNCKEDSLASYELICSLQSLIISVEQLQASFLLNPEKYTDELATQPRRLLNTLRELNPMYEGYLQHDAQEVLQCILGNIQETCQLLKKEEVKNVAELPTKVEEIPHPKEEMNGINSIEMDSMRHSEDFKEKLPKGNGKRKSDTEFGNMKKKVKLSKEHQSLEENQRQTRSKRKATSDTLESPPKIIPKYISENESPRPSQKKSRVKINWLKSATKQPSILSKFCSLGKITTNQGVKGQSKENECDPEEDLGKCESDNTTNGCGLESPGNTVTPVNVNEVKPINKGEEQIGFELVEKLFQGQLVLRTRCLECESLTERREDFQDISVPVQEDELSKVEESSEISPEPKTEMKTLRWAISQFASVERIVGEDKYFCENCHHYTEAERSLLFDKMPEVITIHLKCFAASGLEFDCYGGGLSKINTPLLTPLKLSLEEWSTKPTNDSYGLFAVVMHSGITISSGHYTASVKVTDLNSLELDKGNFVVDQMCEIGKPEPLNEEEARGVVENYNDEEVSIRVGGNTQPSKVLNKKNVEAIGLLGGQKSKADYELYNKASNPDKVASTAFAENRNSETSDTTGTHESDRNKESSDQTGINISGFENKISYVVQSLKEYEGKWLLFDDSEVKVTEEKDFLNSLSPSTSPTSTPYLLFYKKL
- Sequence (Q8TAF3 whole entry, further chain): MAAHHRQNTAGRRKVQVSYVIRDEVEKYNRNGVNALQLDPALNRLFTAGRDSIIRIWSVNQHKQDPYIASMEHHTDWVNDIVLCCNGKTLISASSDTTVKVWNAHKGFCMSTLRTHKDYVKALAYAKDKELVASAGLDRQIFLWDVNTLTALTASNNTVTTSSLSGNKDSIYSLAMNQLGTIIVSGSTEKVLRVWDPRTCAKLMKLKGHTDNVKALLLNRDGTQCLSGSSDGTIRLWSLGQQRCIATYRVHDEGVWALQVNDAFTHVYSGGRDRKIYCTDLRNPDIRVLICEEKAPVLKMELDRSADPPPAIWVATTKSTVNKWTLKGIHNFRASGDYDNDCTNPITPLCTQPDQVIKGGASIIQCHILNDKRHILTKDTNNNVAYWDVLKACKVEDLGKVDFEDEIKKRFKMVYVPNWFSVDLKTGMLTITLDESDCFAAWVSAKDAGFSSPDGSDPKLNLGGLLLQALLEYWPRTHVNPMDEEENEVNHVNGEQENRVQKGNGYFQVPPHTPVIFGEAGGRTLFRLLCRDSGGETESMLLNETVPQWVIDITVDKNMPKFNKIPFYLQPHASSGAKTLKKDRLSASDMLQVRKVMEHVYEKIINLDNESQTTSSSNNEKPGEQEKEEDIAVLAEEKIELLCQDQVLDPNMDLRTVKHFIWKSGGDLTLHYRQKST
- experiment notes: gel-based K63-linked diubiquitin cleavage assay, USP1/UAF1
- assay context: IC50 USP1/UAF1, K63-linked diubiquitin substrate; NI = no significant inhibition at highest inhibitor concentration of 114 μM
measured property: IC50 (µM)
The reply should contain only the number, in µM.

response.value for OCCN1CCN(CCC=C2c3ccccc3Sc3ccc(C(F)(F)F)cc32)CC1 [Flupenthixol, flupenthixol] (field: IC50) = 7

====

Recorded pIC50 for the following compounds
- assay system: caspase-3 (Homo sapiens, UniProt P42574)
- Sequence (P42574 29-175 limits assumed): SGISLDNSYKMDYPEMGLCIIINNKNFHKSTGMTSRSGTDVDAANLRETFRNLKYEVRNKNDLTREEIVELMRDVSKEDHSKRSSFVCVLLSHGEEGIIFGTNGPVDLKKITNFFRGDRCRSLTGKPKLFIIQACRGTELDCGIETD
- Sequence (P42574 176-277 limits assumed): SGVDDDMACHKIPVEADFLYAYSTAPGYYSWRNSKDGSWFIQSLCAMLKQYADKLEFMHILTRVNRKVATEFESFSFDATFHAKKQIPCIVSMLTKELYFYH
pIC50: −log10 of the molar value.

response.value for CC(C)(Sc1ccc(CCN(CCCCC2CCCCC2)C(=O)NC2CCCCC2)cc1)C(=O)O [GW7647] (field: pIC50) = < 3.60

Continuing:
response.value for O=c1[nH]c2ccccc2n1C1CCN(CCCC(c2ccc(F)cc2)c2ccc(F)cc2)CC1 [Pimozide, pimozide] (field: pIC50) = < 3.60

====

- assay system: caspase-3 (Homo sapiens, UniProt P42574)
- Sequence (P42574 29-175 limits assumed): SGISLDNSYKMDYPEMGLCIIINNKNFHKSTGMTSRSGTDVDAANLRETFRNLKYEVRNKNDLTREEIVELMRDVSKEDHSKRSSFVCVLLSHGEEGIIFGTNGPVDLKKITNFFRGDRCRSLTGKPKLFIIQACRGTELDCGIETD
- Sequence (P42574 176-277 limits assumed): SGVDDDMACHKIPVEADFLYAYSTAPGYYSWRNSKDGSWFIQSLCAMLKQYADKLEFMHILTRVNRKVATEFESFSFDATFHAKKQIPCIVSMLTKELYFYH
Recorded IC50 for the following compounds

response.value for CC(=O)c1c(O)c(C)c(O)c(Cc2c(O)c3c(c(C(=O)/C=C/c4ccccc4)c2O)OC(C)(C)C=C3)c1O (field: IC50) = 5 to 45 µM

Continuing:
response.value for CN1CCN(CCCN2c3ccccc3Sc3ccc(C(F)(F)F)cc32)CC1 (field: IC50) = > 250 µM

response.value for OCCN1CCN(CCC=C2c3ccccc3Sc3ccc(C(F)(F)F)cc32)CC1 (field: IC50) = > 250 µM

This collection of values is drawn from paper PMC3344384.
